- Test system: MDA-MB-435 melanoma
- Test: NCI-60 one-dose screen, 48 h
- Test Context: 10 µM unless noted
Compounds without any hit were thinned out: in the full panel of roughly 83,000, 20% have a hit. Activity calls are given as the source filed them. The calls were made as follows: active = growth percent below 10; inactive = the rest.
Choose the fitting class; nothing outside T (active), F (inactive) is accepted.

In: Please indicate how the test categorized `CN(CCC(=O)/C(=C\c1ccccc1)c1ccc(Cl)cc1)Cc1ccccc1` .
Out: T

In: Note, next up: `CN(C)CCOC(=O)Nc1ccc(Cl)cc1`
Out: F

In: Same thing, different compound: `O=C(NC1CCOCC1)c1ccc2c(c1)CN(c1ncc(Cc3cccc(-n4cccn4)c3)s1)CC2`
Out: F

In: Consider next the compound CCC(O)(C(c1ccccc1)c1ccccn1)C(c1ccccc1)c1ccccn1 (stereo not given) in the same way.
Out: F

In: Another compound to look at: `Cc1ccc(S(=O)(=O)Nc2sccc2-c2nc(-c3ccccc3)no2)cc1`
Out: F

In: Input `N#Cc1c(NC(=O)c2cccc(C(F)(F)F)c2)sc2c1CCC(=O)C2`
Out: T

In: Now try `O=C1NN(C(=O)c2ccc(O)cc2)C(c2ccccc2)=N/C1=C\c1cn(-c2ccccc2)nc1-c1ccccc1` .
Out: F

In: Next: `N#Cc1cnn2c(-c3ccc(Cl)cc3)nc(NCCc3ccccc3)nc12`
Out: F

In: // same read-out, input: `N=C(N)c1ccc(-c2ccc(-c3ccc(Cl)cc3Cl)o2)cc1`
Out: T

In: Now the compound `Cc1c2c(cn1Cc1ccccc1)CCc1cn(C)nc1-2`
Out: F

###

Please respond with reported growth for every item in the list.
- Test system: LOX IMVI melanoma
- Test: NCI-60 one-dose screen, 48 h (100 = growth as untreated, 0 = no growth, -100 = all killed)
- Test Context: 10 µM unless noted
This is part of a sample that, as a whole, favours compounds with a hit. Of some 83,000 tested, about 20% had one in any assay. The source made the active and inactive calls. Rule for the calls: active = growth percent below 10; inactive = the rest.

In: Report growth for `CS(=O)(=O)c1ccc(-c2nc3cc(Cl)ccc3n2CC(=O)N/N=C/c2ccc(Cl)cc2)cc1` please.
Out: 30.7% (inactive)

In: Same thing, different compound: `CCn1nc(C#Cc2c(C)ccc3c(Nc4ccc(Cl)cc4)nccc23)c2c(N)ncnc21`
Out: 11.3% (inactive)

In: Record: `CCOc1ccc(S(=O)(=O)c2ccc(C)cc2)c2c1no[n+]2[O-]`
Out: 87.1% (inactive)

In: Next entry: `COc1ccc(-c2nc3sccn3c2/C=C/C(=O)c2c[nH]c3ccccc23)cc1`
Out: 37.5% (inactive)

In: Cool, now `CC1(C)C(=O)/C(=C\c2cccnc2)C[C@]2(C)[C@H]3CC=C4[C@@H]5C[C@@](C)(C(=O)O)CC[C@]5(C)CC[C@@]4(C)[C@]3(C)CC[C@@H]12`
Out: 99.5% (inactive)

###

Exercise: for every item that follows, state its recorded growth.
- Tested on: SK-MEL-2 melanoma
- Test: NCI-60 one-dose screen, 48 h (100 = growth as untreated, 0 = no growth, -100 = all killed)
- Test Context: 10 µM unless noted
The panel holds about 83,000 compounds, 20% with a hit somewhere; the sample as a whole holds those more often.
Report only the number, with the unit % understood.

In: Item `COc1ccc(N(C)c2nc(Cl)nc3cnn(C)c23)cc1` has what recorded growth?
Out: 22.2

In: Entry O=c1[nH]c(=O)n(C2CC(O)C(CO)O2)cc1CO (stereo not given) please
Out: 53.5

In: Next up: `C[C@@H]1CC[C@@H]2[C@@H]1[C@H](OC(=O)c1ccc3ccccc3c1)[C@]1(C3CCCCC3)C[C@@H](OC(=O)CO)[C@@]2(C)O1`
Out: 69.5

In: // query: `Nc1nc(Nc2ccc(Cl)cc2)nn1S(=O)(=O)c1ccc(-c2ccc(F)cc2)cc1`
Out: 107

In: Similarly, `COc1ccccc1C(=O)NC(=S)Nc1ccc(-c2nc3ccccc3[nH]2)cc1` ?
Out: 109
